# Test system: TK-10 renal
# test-details: NCI tumour cell line growth inhibition, 48 h; in the data active = GI50 below about 0.43 µM; inactive = the rest
// classify into yes (1) for active, no (0) for inactive

Query block: How was `O=C(/C=C/c1ccco1)c1ccc(Nc2nc(Nc3ccc(F)cc3)nc(Nc3ccc(F)cc3)n2)cc1` classified in this test?
Result block: no (0)

Query block: How was `O=C(c1ccc2ccccc2c1)c1c(C(F)(F)F)n([O-])c2ccc(F)cc2[n+]1=O` classified in this test?
Result block: no (0)

Query block: How was `Cc1c(Cl)cccc1NC(=O)c1sc2nc3c(cc2c1N)CCCC3` classified in this test?
Result block: no (0)

Query block: How was `CCCN1CCC=C(c2ccc(Nc3nc(Nc4ccccc4C(N)=O)c4cc[nH]c4n3)c(C)c2)C1` classified in this test?
Result block: no (0)

Query block: How was `CCOC(=O)c1c(C)n(Cc2ccccc2)c2c1cc1oc(=O)c(=O)n3cnc2c13` classified in this test?
Result block: no (0)

Query block: How was O=C1/C(=C\c2ccccc2)C2OCC=C3CN4CCC56c7ccccc7N1C5C2C3CC46 (configuration not stated) classified in this test?
Result block: no (0)

Query block: How was C=CC(C)(O)CC/C=C(\CO)C(=O)OC1C(C)OC(O[C@](C)(C=C)CC/C=C(\CO)C(=O)O[C@H]2C[C@@]3(C(=O)OC4OC(CO)C(O)C(O)C4OC4OC(C)C(OC5OC(CO)C(O)C5O)C(OC5OC(CO)C(O)C(O)C5O)C4O)C(CC2(C)C)C2=CCC4[C@@]5(C)CC[C@H](OC6OC(COC7OC(C)C(O)C(O)C7OC7OCC(O)C(O)C7O)C(O)C(O)C6NC(C)=O)C(C)(C)C5CC[C@@]4(C)[C@]2(C)C[C@H]3O)C(O)C1O (some centres not stated) classified in this test?
Result block: yes (1)

Query block: How was `COc1ccc(C2=Nc3c/c(=C\c4c(O)[nH]c5cc(Cl)ccc45)ccc3=N2)cc1` classified in this test?
Result block: no (0)

Query block: How was Nc1nc(N)c2c(n1)NC(c1sc(Cl)nc1Cl)CC(c1ccc3c(c1)OCO3)=N2 (configuration not stated) classified in this test?
Result block: no (0)

Query block: How was `COc1cccc(NC2=C(Cl)C(=O)N(Cc3ccc(Cl)cc3)C2=O)c1` classified in this test?
Result block: no (0)

Query block: How was `COc1ccc(C(=O)c2cc3c(N)c(C(=O)Nc4cccc(OC)c4)sc3nc2C)cc1` classified in this test?
Result block: no (0)

Query block: How was `O=C(Nc1cccc(C(F)(F)F)c1)c1cc2ccccc2cc1O` classified in this test?
Result block: no (0)

----------
# System: HCC-2998 colon
# test-details: NCI tumour cell line growth inhibition, 48 h
Please provide measured TGI for the entries that follow.
# unit: µM | format: bare number

Query block: Item under review: `O=C1c2cc([N+](=O)[O-])sc2C(=O)c2c([N+](=O)[O-])csc21` . Reported TGI?
Result block: 2.3

Query block: Item under review: `CC(C)(C)[Si](C)(C)OC[C@H](/C=C\CCCC(=O)O)NC1(c2ccccc2)c2ccccc2-c2ccccc21` . Reported TGI?
Result block: 37.2

----------
# Tested on: OVCAR-8 ovarian
# test-details: NCI tumour cell line growth inhibition, 48 h
Please provide measured TGI for the entries that follow.

Query block: Any idea what TGI came out for COC(=O)C(=O)C(C(=O)C(=O)Nc1cc(Cl)c(Cl)cc1Cl)c1nc2ccc([N+](=O)[O-])cc2[nH]c1=O (stereo not drawn) on OVCAR-8 ovarian?
Result block: > 100 µM

Query block: Any idea what TGI came out for CCCCC[C@H]1CCCCCCCCCC(=O)OC2C(O[C@@H]3OC(C)[C@H](OC(=O)[C@@H](C)CC)C(O[C@@H]4OC(C)[C@H](O)C(O)[C@@H]4O)[C@@H]3OC(=O)[C@H](C)CC)[C@H](OC3C(O)[C@@H](O)C(C)O[C@H]3O1)OC(CO)[C@H]2O (stereo partly drawn) on OVCAR-8 ovarian?
Result block: 35.5 µM

Query block: Any idea what TGI came out for `Cc1cc2ccc(N)nc2[nH]c1=O` on OVCAR-8 ovarian?
Result block: > 100 µM

----------
Please provide measured TGI for the entries that follow.
# Test system: UO-31 renal
# test-details: NCI tumour cell line growth inhibition, 48 h

Query block: Item under review: `COc1cccc(NC2=C(Cl)C(=O)N(Cc3ccc(Cl)cc3)C2=O)c1` . Reported TGI?
Result block: 31.7 µM

Query block: Item under review: `C#CCOCn1cnc2ncnc(N)c21` . Reported TGI?
Result block: > 100 µM

Query block: Item under review: CCOC(=O)C1=C(C)N(Cc2ccccc2)C2(O)C=CC(=O)C3=C(O)c4ccccc4C(=O)C312 (stereo unspecified) . Reported TGI?
Result block: 21.5 µM

Query block: Item under review: `O=C(/C=C/c1ccccc1)CCC1C(=O)NC(=S)NC1=O` . Reported TGI?
Result block: > 100 µM

Query block: Item under review: `COc1cc(Cn2c(-c3ccccc3)cc3c2-c2oncc2CC3)cc(OC)c1` . Reported TGI?
Result block: > 100 µM

Query block: Item under review: `O=C(CCCCCCCCC(=O)N/N=C\c1cc(Cl)ccc1O)N/N=C\c1cc(Cl)ccc1O` . Reported TGI?
Result block: > 100 µM

Query block: Item under review: `CC(C)(C)Sc1nnc(SC(C)(C)C)c2c(=O)[nH]nc(SC(C)(C)C)c12` . Reported TGI?
Result block: 19.7 µM

Query block: Item under review: `O=c1c2ccccc2nc(-c2ccccc2)n1NC(=S)Nc1cccc(Cl)c1` . Reported TGI?
Result block: > 100 µM

Query block: Item under review: `O=C(/C=C/c1cccc2ccccc12)Nc1ncc(Cc2ccccc2)s1` . Reported TGI?
Result block: 3.98 µM

Query block: Item under review: COc1ccc(C)cc1C1CCC(=O)O1 (stereo unspecified) . Reported TGI?
Result block: > 100 µM

Query block: Item under review: CC(=O)NC(CCCN(Cc1ccccc1)C(=O)N(C)N=O)C(=O)NCc1ccccc1 (stereo unspecified) . Reported TGI?
Result block: > 100 µM

----------
# Tested on: HOP-62 NSCLC
# test-details: NCI tumour cell line growth inhibition, 48 h; in the data active means GI50 below about 0.43 µM; inactive means the rest
// classify into True for active, False for inactive

Query block: How was C=CC(C)(O)CC/C=C(\CO)C(=O)OC1C(C)OC(O[C@](C)(C=C)CC/C=C(\CO)C(=O)O[C@H]2C[C@@]3(C(=O)OC4OC(CO)C(O)C(O)C4OC4OC(C)C(OC5OC(CO)C(O)C5O)C(OC5OC(CO)C(O)C(O)C5O)C4O)C(CC2(C)C)C2=CCC4[C@@]5(C)CC[C@H](OC6OC(COC7OC(C)C(O)C(O)C7OC7OCC(O)C(O)C7O)C(O)C(O)C6NC(C)=O)C(C)(C)C5CC[C@@]4(C)[C@]2(C)C[C@H]3O)C(O)C1O (some centres not stated) classified in this test?
Result block: True

Query block: How was `Oc1ccc(Cl)cc1/C=N\NC(=S)N/N=C/c1cc(Cl)ccc1O` classified in this test?
Result block: False

Query block: How was `CCN(CC)Cc1cc(Nc2c3ccccc3nc3cc(Cl)ccc23)ccc1O` classified in this test?
Result block: False

Query block: How was `NC(=O)c1ccc(N(C(N)=O)c2c(F)cccc2F)nc1-c1ccc(F)cc1F` classified in this test?
Result block: False

Query block: How was [CH3][Sn]1([CH3])[O]CC(COc2cc(Cl)c(Cl)cc2Cl)[O]1 (configuration not stated) classified in this test?
Result block: False

Query block: How was `O=C(/C=C/c1ccco1)c1ccc(Nc2nc(Nc3ccc(F)cc3)nc(Nc3ccc(F)cc3)n2)cc1` classified in this test?
Result block: False

Query block: How was `Nc1c(C(=O)Nc2cccc3ccccc23)sc2nc3c(cc12)C(=O)CCC3` classified in this test?
Result block: True

----------
Please provide measured log10(TGI) for the entries that follow.
# Tested on: MDA-MB-435
# test-details: NCI tumour cell line growth inhibition, 48 h
Scale type: logarithmic (base 10). Underlying TGI unit: µM.

Query block: Item under review: `Cc1ccc(-c2n[nH]c(=O)c3noc(-c4ccc(C)cc4)c23)cc1` . Reported log10(TGI)?
Result block: -0.19

Query block: Item under review: CC1(C)CC(=O)C2=C(C1)OC1(CC2c2ccc(Cl)cc2)CC(c2ccc(Cl)cc2)C2=C(CC(C)(C)CC2=O)O1 (centres undefined) . Reported log10(TGI)?
Result block: 1.53

Query block: Item under review: `O=C(C=C=Nc1ccccc1)C(=O)N=C=Cc1ccccc1` . Reported log10(TGI)?
Result block: 0.90

Query block: Item under review: `O=C(Nc1cccc(C(F)(F)F)c1)c1cc2ccccc2cc1O` . Reported log10(TGI)?
Result block: 0.67

Query block: Item under review: `COc1cc(Cn2c(-c3ccccc3)cc3c2-c2oncc2CC3)cc(OC)c1` . Reported log10(TGI)?
Result block: -0.47
